target.under.test: Ba/F3-FL-TYK2-P760L cells (Homo sapiens, UniProt P29597, P760L, cells depend on it)
Construct: BaF3-FL-T2P760L (nM)
Sequence (P29597 whole entry P760L): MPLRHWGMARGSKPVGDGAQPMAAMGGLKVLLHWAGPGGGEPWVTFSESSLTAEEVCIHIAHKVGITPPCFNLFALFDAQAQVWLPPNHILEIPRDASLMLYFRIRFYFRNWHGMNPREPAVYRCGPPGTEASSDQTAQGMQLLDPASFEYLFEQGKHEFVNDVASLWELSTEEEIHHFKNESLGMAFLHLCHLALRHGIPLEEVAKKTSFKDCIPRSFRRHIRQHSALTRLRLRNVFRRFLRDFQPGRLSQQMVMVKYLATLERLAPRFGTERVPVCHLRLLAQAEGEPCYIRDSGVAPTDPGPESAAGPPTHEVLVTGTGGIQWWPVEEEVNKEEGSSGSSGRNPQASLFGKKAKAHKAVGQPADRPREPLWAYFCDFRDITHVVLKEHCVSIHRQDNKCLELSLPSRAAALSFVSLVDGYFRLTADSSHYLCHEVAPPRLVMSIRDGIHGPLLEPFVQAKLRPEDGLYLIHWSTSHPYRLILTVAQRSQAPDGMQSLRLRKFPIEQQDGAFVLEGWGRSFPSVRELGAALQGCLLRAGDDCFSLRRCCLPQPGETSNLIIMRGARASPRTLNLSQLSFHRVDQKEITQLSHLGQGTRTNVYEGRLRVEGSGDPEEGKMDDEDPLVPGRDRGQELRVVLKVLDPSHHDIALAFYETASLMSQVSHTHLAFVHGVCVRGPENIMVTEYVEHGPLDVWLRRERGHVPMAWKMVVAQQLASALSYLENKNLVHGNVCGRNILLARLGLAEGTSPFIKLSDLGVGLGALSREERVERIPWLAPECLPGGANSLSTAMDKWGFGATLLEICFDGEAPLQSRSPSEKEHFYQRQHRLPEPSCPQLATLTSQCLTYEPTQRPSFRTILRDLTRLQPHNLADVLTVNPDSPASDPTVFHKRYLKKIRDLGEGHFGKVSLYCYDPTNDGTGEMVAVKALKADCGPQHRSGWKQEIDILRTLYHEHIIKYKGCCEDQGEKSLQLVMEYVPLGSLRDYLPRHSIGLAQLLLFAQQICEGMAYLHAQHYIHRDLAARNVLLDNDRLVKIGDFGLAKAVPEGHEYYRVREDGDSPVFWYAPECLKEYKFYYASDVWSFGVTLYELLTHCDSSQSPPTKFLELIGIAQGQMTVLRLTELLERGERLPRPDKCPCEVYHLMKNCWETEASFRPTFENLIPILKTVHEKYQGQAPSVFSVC
assay.procedure: Anti-proliferative assay, Ba/F3-FL-TYK2-P760L cells (Cell-Titer Glo)
Format: cell-based
experimental.context: 72 h, read-out: BaF3-FL-T2P760L IC50
In this section we review reported GI50 values for a set of compounds.
quantity.name: GI50 (nM)

In [3]: df
Out[3]:
                                    compound  qual  measurement
 0  [2H]C([2H])([2H])NC(=O)c1cnc(NC(=O)C2CC2)cc1Nc1csc2cnn(CCOC)c(=O)c12     >         5000
 1  [2H]C([2H])([2H])NC(=O)c1cnc(NC(=O)[C@H]2C[C@@H](C#N)C2)cc1Nc1ccc2cnn(CC)c2c1OC [Example 128A]     =          736
 2  COC(=O)c1cnc(NC(=O)C2CC2)cc1Nc1cnc2ccn(CC(F)(F)F)c(=O)n12     =         3810
 3  [2H]C([2H])([2H])NC(=O)c1cnc(NC(=O)C2CC2)cc1Nc1cn(CCOC)c2ccn(C(C)C(F)(F)F)c(=O)c12 (centres unmarked)     =          162
 4  [2H]C([2H])([2H])NC(=O)c1cnc(NC(=O)C2CC2)cc1Nc1ncc2cnn(CC(C)(F)F)c2c1OC     =         88.2
 5  [2H]C([2H])([2H])NC(=O)c1cnc(Nc2ccc(C)nn2)nc1Nc1cccc(-c2ncn(C)n2)c1OC     =         3510
 6  [2H]C([2H])([2H])NC(=O)c1cnc(NC(=O)C2CC2)cc1Nc1ccc2cnc(CC)n2c1OC     >         5000
 7  [2H]C([2H])([2H])NC(=O)c1cnc(NC(=O)C2CC2)cc1Nc1csc2c(Cl)cn(CC)c(=O)c12     =         86.5
 8  [2H]C([2H])([2H])NC(=O)c1cnc(Nc2ccc(F)cn2)cc1Nc1cn(C)c2c(F)cn(C)c(=O)c12     =         34.7
 9  CCC(=O)c1cnc(Nc2ccc(F)cc2)nc1Nc1cccc(-c2ncn(C)n2)c1OC     =          157
10  [2H]C([2H])([2H])NC(=O)c1cnc(NC(=O)C2CC2)cc1Nc1ccc2cnn(C(C)C#N)c2c1OC (single isomer, unassigned) [Example 249B]     =          342
11  CCCn1ncc2ccc(Nc3cc(NC(=O)C4CC4)ncc3C(=O)NC)c(OC)c21     =         80.2
12  [2H]C([2H])([2H])NC(=O)c1cnc(Nc2ccncn2)cc1Nc1cc(F)c2cnn(CC)c2c1OC     =         53.9
13  CNC(=O)c1cnc(Nc2ccc(F)cc2)nc1Nc1cccc(OC2CCOCC2)c1OC     =          897
14  [2H]C([2H])([2H])NC(=O)c1cnc(NC(=O)C2CC2)cc1Nc1nn(CCOC)c2ccn(CC(F)(F)F)c(=O)c12     =         1090
15  [2H]C([2H])([2H])NC(=O)c1cnc(NC(=O)C2CC2)cc1Nc1ncn2ncc(CC)c2c1OC     =         40.2
16  CNC(=O)c1cnc(NC(=O)C2CC2)cc1Nc1csc2c(Cl)cn(C)c(=O)c12     =          105
17  CNC(=O)c1cnc(NC(=O)C2CC2)cc1Nc1ccc2nc3n(c2c1OC)CCC3     =         1420
18  [2H]C([2H])([2H])NC(=O)c1cnc(NC(=O)C2CC2)cc1Nc1cn(C)c2ccn(CCO)c(=O)c12     =         2390
19  [2H]C([2H])([2H])NC(=O)c1cnc2cc1Nc1cc(cc(-c3ncn(C)n3)c1OC)COCc1cc(C(F)(F)F)cc(n1)N2     =         79.9
20  [2H]C([2H])([2H])NC(=O)c1cnc(NC(=O)C2CC2)cc1Nc1cn(C)c2ccn(C3CC3)c(=O)c12     =          523
21  [2H]C([2H])([2H])NC(=O)c1cnc(Nc2cccc(F)n2)cc1Nc1cn(C)c2c(Cl)cn(CC)c(=O)c12     =         21.6
22  [2H]C([2H])([2H])NC(=O)c1cnc(NC(C)=O)cc1Nc1ccc2cnn(CC)c2c1OC     =          478
23  [2H]C([2H])([2H])NC(=O)c1cnc(NC(=O)C2CC2)cc1Nc1ccc2nc(C)n(CC)c2c1OC     =          728
24  [2H]C([2H])([2H])NC(=O)c1cnc(NC(=O)C2CC2)cc1Nc1ccn2ncc(CO)c2c1OC     =          565
25  [2H]C([2H])([2H])NC(=O)c1cnc2nc1Nc1cc(cc(-c3ncn(C)n3)c1OC)COCc1cc(F)cc(n1)N2     =          330
26  [2H]C([2H])([2H])NC(=O)c1cnc(NC(=O)C2CC2)cc1Nc1ccc2cnn(C(C)C)c2c1OC     =          522
27  [2H]C([2H])([2H])NC(=O)c1cnc(Nc2ccc(F)cn2)cc1Nc1cn(C)c2ccn(CC)c(=O)c12     =         56.7
28  CNC(=O)c1cnc2cc1Nc1cc(cc(-c3ncn(C)n3)c1OC)COCc1cccc(n1)N2     =          125
